Test system: RIPK4
Conditions: concentration: 1 μM, replicates: in singlicate; n = 1
Just a reminder that ties go to false (0): only %Inh strictly below 8% counts as true (1).

Take a look at these entries with their results.
>>> print(df.to_string())
                                   molecule  group_label
0  O=c1cc(N2CCOCC2)nc2n(Cc3ccc(F)c(Cl)c3)ccn12 [GSK2297099]    false (0)
1  COc1cc(Nc2nccc(N3CCC(NC(=O)C4COc5ccccc5O4)C3)n2)cc(OC)c1OC (stereo not drawn) [GSK1379761]     true (1)
2  Nc1nccc2scc(-c3ccc4c(c3)CCN4C(=O)Cc3ccccc3)c12 [GSK2576924]     true (1)
3  Cc1ccccc1COc1cc(-n2cnc3cc(Cl)ccc32)sc1C(N)=O [GW813349]    false (0)
4  O=C(NCc1cccs1)c1cc(C(=O)c2c(Cl)cccc2Cl)c[nH]1 [GW823670]     true (1)
5  CN1C(=O)C(Nc2cc(Cl)c(O)c(Cl)c2)=C(c2ccc(Cl)cc2)C1=O [SB-404321]    false (0)
6  Cc1cccc(-c2nc(Nc3ccc4c(cnn4C)c3)c3ccccc3n2)n1 [GW876731]    false (0)

Then there is this molecule:
Record O=C(Nc1n[nH]c2nc(-c3ccccc3)c(Cl)cc12)C1CC1 [SB-734909] : is its %Inh strictly below 8%?
false (0)

---

System: TRPM6
Conditions: concentration: 1 μM, replicates: in singlicate; n = 1
Kindly return MET if reported %Inh is no lower than 10%; return NOT MET if it is lower.

Take a look at these entries with their results.
>>> print(df.to_string())
                                   compound  group_label
0  COc1cc2ncn(-c3cc(OCc4ccncc4)c(C(N)=O)s3)c2cc1OC [GSK336313]          MET
1  COc1cc(Nc2nccc(N3CCC(NC(=O)C(C)c4ccc(Cl)cc4)C3)n2)cc(OC)c1OC (stereo not shown) [GSK1379757]      NOT MET
2    Nc1ncnc2c1ncn2-c1cccc(F)c1 [SKF-97560]          MET
3  Cc1cccc(-c2cc(-c3c[nH]nc3-c3ccccn3)ccn2)c1 [GW679395]      NOT MET
4  Nc1nccc2scc(-c3ccc4c(c3)CCN4C(=O)Cc3ccccc3)c12 [GSK2576924]          MET

Decide: is the reported value of %Inh for `CCC(=O)c1c(-c2ccccc2)c2cc(Cl)ccc2c(=O)n1Cc1cc(S(C)(=O)=O)n(CC(N)=O)n1` equal to or greater than 10%?
NOT MET

Similarly, COc1ccc(Nc2nccc(N3CCC(NS(=O)(=O)c4ccc(NC(C)=O)cc4)C3)n2)cc1 (stereo not shown) [GSK1379729] ?
NOT MET

Similarly, Nc1n[nH]c2nnc(-c3ccccc3)c(-c3ccccc3)c12 [GW554060] ?
NOT MET

Similarly, COc1ccc(CNC(=O)NC2CCN(c3ccnc(Nc4ccc(F)cc4)n3)C2)cc1 (stereo not shown) [GSK1379706] ?
NOT MET

Similarly, Nc1ncnc2c1ncn2-c1cccc2ccccc12 [SKF-97184] ?
MET

Similarly, COc1ccc(-n2cnc3c(N)ncnc32)cc1 [SKF-97236] ?
MET

Similarly, O=c1cc(N2CCOCC2)nc2n(Cc3ccc(F)c(Cl)c3)ccn12 [GSK2297099] ?
MET

Similarly, Nc1nc(N)c2nc(-c3ccccc3)[nH]c2n1 [SKF-12778] ?
MET

Similarly, OCCCNc1nccc(-c2c(-c3cccc(C(F)(F)F)c3)nn3cc(C(F)(F)F)ccc23)n1 [GW630813] ?
NOT MET

Similarly, `CC(C)(C)c1ccc(C(=O)Nc2cn3cc(-c4ccccc4)ccc3n2)cc1` ?
NOT MET

Similarly, Cc1c(Cn2c(C)nn3c(=O)cc(N4CCO[C@H](C)C4)nc23)cccc1C(F)(F)F [GSK2373690] ?
NOT MET

Similarly, Nc1n[nH]c2ncc(-c3ccccc3)cc12 [SB-517081] ?
MET

Similarly, COc1cc(Nc2ccnc3ccc(C(F)(F)F)cc23)cc(OC)c1OC [GW577382] ?
NOT MET

---

// values below are reported %Inh
System: CDC2L1
Construct: gene CDK11B
Settings: concentration: 1 μM, replicates: in singlicate; n = 1
Expressed in %, but write only the number.

>>> print(df.to_string())
                                 mol_smiles  target_system  readout_number
0  Cc1ccc(-c2ccc3c(ccc4sc5c(c43)NC[C@@H](C)N=C5N(C)C)n2)cn1         CDC2L1               4
1      CN1C(=O)C(Nc2ccccc2)=C(c2ccccc2)C1=O         CDC2L1               0

Look at this molecule and give its reported %Inh. `CCC(=O)c1c(-c2ccccc2)c2cc(Cl)ccc2c(=O)n1Cc1ccc(C(=O)O)cc1`
0

---

System: GSK3A
Details: concentration: 1 μM, replicates: in singlicate; n = 1
Observed Property: %Inh (%)
Expressed in %, but write only the number.

Solved entries:
                                 mol_smiles  target_system  observed_property  units_of_measure  readout_number
0  CCC(=O)c1c(-c2ccccc2)c2cc(Cl)ccc2c(=O)n1Cc1cc(C(=O)NC2CC2)n(C)n1          GSK3A               %Inh                 %               0
1  COc1cc2ncn(-c3cc(OCc4ccncc4)c(C(N)=O)s3)c2cc1OC          GSK3A               %Inh                 %              15

Look at this compound and give its reported %Inh. `CCCC(=O)Nc1n[nH]c2ncc(-c3cccc4ccccc34)cc12`
87

Similarly, `Cc1ccc(-c2ccc3c(ccc4sc5c(c43)NC[C@@H](C)N=C5N(C)C)n2)cn1` ?
0

---

System: PRKD3
Conditions: concentration: 1 μM, replicates: in singlicate; n = 1
// values below are reported %Inh

>>> print(df.to_string())
                                 mol_smiles  observed_property  result
0              Nc1n[nH]c2ncc(-c3ccccc3)cc12               %Inh      0%
1  CCC(=O)c1c(-c2ccccc2)c2cc(Cl)ccc2c(=O)n1Cc1cc(S(C)(=O)=O)n(CC(F)F)n1               %Inh      0%
2  Nc1nccc2scc(-c3ccc4c(c3)CCN4C(=O)Cc3ccccc3)c12               %Inh     11%
3  CCC(=O)c1c(-c2ccccc2)c2cc(Cl)ccc2c(=O)n1Cc1cc(S(C)(=O)=O)n(CCC(C)(C)O)n1               %Inh      0%
4  CN1C(=O)C(Nc2cc(Cl)c(O)c(Cl)c2)=C(c2ccc(Cl)cc2)C1=O               %Inh      0%

Look at this compound and give its reported %Inh. `COc1ccc(-n2cnc3c(N)ncnc32)cc1`
5%

---

System: PIK3C2B;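 note: kd values determined as follow-up on hits from a single-replicate KINOMEscan panel screen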
Observed Property: Kd (nM)
Expressed in nM, but write only the number.

Can you look up Kd on PIK3C2B for `COc1ccc(-c2cc3c(C)nc(N)nc3n([C@H]3CC[C@H](OCCO)CC3)c2=O)cn1` ?
1.3

---

// values below are reported %Inh
System: WNK4
Details: concentration: 1 μM, replicates: in singlicate; n = 1
Expressed in %, but write only the number.

In [3]: df
Out[3]:
                                   compound  target_system  observed_property  readout_number
0           Nc1nc(N)c2nc(-c3ccccc3)[nH]c2n1           WNK4               %Inh              17
1  Cc1nnc(-c2ccc(C)c(-c3ccc(C(=O)O)cc3)c2)o1           WNK4               %Inh               0

Look at this compound and give its reported %Inh. `Nc1nccc2scc(-c3ccc4c(c3)CCN4C(=O)Cc3ccccc3)c12`
0

---

Tested on: MTOR
Details: concentration: 1 μM, replicates: in singlicate; n = 1
Just a reminder that ties go to Not satisfied: only %Inh strictly below 7% counts as Satisfied.

In [3]: df
Out[3]:
                                   compound    group_label
0  Cc1ccc(-c2ccc3c(ccc4sc5c(c43)NC[C@@H](C)N=C5N(C)C)n2)cn1  Not satisfied

Record Nc1nc(N)c2nc(-c3ccccc3)[nH]c2n1 [SKF-12778] : is its %Inh strictly below 7%?
Not satisfied

Similarly, O=C(Nc1n[nH]c2cc(-c3ccccc3F)ccc12)C1CC1 [SB-733371] ?
Satisfied

Similarly, COc1cccc(C2=C(N(C)c3ccccc3)C(=O)NC2=O)c1 [SB-334865] ?
Not satisfied

Similarly, CN1C(=O)C(Nc2ccccc2)=C(c2ccccc2)C1=O [SB-300079] ?
Not satisfied

Similarly, COc1cc2ncn(-c3cc(OCc4ccncc4)c(C(N)=O)s3)c2cc1OC [GSK336313] ?
Not satisfied

The reported numbers originate from paper PMC5540273.
